Values compiled from ChEMBL document CHEMBL4033750.

Would you kindly list inhibition for each of these molecules?
Molecular target: Phosphatidylcholine:ceramide cholinephosphotransferase 2 (Homo sapiens)
Sequence (whole entry): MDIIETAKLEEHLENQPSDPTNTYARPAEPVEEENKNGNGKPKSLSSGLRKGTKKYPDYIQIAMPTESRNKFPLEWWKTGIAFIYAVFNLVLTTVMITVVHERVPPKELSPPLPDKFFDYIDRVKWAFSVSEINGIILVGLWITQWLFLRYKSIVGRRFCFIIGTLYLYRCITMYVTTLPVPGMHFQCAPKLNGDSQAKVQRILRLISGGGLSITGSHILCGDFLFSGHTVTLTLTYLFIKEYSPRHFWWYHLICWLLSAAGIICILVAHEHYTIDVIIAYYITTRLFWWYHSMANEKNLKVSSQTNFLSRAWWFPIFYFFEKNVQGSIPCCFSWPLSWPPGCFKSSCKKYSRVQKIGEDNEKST
Assay: Inhibition of purified SMS2 (unknown origin) at 10 umol/L pre-incubated for 5 mins followed by DMPC and C6-NBD-ceramide addition and measured after 30 mins by HPLC method
Answers are plain numbers, in %.

1) Fc1ccccc1COc1ccccc1-c1nc2cccnc2o1 46

For each entry beneath this line, provide reported inhibition.
1. N#Cc1ccccc1COc1ccccc1-c1nc2cccnc2o1
2. COc1ccc(C)c(COc2ccccc2-c2nc3cccnc3o2)c1
3. c1ccc(COc2ccccc2-c2nc3cccnc3o2)cc1
4. Fc1cccc(COc2ccccc2-c2nc3cccnc3o2)c1
5. Fc1cc(F)cc(COc2ccccc2-c2nc3cccnc3o2)c1

1: 31; 2: 64; 3: 69; 4: 80; 5: 62
